molecular target: acetylcholine receptor (rat cerebral membranes) (Rattus norvegicus, UniProt P09483+P12390); construct: Synaptic membranes were prepared by homogenizing the cortical tissue; from tissue; host or cells: cerebral cortex synaptic membranes of male Sprague-Dawley rats; assay: 3H-nicotine displacement from rat cerebral membranes; format: binding; conditions: 3H-nicotine (1.9 nM) displacement, atropine 3 μM
Sequence (P09483 31-630): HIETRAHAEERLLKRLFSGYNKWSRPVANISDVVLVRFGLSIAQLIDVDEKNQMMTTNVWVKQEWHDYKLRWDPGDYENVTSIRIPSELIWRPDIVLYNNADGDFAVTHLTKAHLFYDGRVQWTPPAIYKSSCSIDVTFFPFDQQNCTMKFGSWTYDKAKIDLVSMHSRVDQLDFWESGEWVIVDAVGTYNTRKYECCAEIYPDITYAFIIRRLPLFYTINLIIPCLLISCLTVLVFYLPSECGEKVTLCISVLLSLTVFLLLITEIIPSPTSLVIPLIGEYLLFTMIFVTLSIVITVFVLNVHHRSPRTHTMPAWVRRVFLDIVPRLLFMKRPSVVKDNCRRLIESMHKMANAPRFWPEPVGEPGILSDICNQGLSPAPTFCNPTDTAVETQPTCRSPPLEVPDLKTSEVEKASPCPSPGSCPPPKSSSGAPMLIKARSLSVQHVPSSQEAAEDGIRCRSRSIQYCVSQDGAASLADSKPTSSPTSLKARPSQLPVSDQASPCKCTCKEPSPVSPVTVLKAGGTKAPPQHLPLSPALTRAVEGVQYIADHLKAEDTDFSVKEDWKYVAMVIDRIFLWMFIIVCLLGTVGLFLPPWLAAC
Sequence (P12390 25-500): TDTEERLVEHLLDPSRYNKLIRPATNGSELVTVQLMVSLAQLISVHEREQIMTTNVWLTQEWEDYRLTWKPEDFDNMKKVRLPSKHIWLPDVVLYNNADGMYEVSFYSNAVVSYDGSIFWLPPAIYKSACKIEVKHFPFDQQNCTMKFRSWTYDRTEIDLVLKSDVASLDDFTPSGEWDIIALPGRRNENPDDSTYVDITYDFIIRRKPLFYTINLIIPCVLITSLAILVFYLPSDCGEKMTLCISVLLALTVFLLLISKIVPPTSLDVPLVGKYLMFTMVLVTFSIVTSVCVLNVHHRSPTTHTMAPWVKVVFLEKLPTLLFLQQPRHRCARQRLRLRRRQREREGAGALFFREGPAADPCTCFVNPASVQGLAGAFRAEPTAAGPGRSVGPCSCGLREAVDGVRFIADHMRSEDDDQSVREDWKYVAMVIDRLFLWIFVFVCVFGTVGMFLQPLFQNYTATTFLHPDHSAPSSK
pIC50: −log10 of the molar value.
Parameter pIC50: see the listing below.

compound: COc1cc2c(cn1)C1NCCC1CC2 (stereo not drawn)
pIC50: 5.72

compound: c1cc2c(cn1)C1NCCC1CO2 (stereo not drawn)
pIC50: 6.29

compound: COc1cc2c(cn1)C1C(CC2)CCN1C (stereo not drawn)
pIC50: 4.97

These measurements were taken from patent US5567710A.
